# experiment.notes: ATG_CRE_CIS: Attagene CIS-FACTORIAL HepG2 Assay for human cAMP Responsive Element (CRE) binding protein 3 (AID 2282926)
# study.conditions: HepG2 CRE cis-reporter, Attagene multiplexed mRNA; actives raise or lower the signal
Active and inactive are the calls of the source. Rule for the calls: active = hit-call score of the fitted dose curve at least 0.9, where 1 is the maximum; inactive = score below 0.9.
Outcome codes: active, inactive

1. C=CCOC(=O)CCC1CCCCC1 ... inactive
2. CNCCCC12CCC(c3ccccc31)c1ccccc12 ... inactive
3. NC(=O)c1ccccc1Cl ... active
4. CC(C)=CCC[C@H](C)CC=O ... inactive
5. C=C(C)C(=O)Nc1ccc(Cl)c(Cl)c1 ... inactive
6. Nc1ccc(S(N)(=O)=O)cc1 ... inactive
7. OC1OC[C@@H](O)[C@H](O)[C@H]1O (stereo partly specified) ... inactive
8. CN1Cc2c(N)cccc2C(c2ccccc2)C1 (stereo unspecified) ... inactive
9. CCCc1ccccc1O ... inactive
10. Nc1ccc(S(=O)(=O)O)c(N)c1 ... inactive
11. C=CC(C)(C)O ... inactive
12. CC(C)c1ccc(C(C)C)cc1 ... inactive
13. CCCCOCCOCCSC#N ... inactive
14. Cc1c(Cl)c(=O)oc2cc(O)ccc12 ... inactive
15. CC1=CCC2C(C1)C2(C)C (stereo unspecified) ... inactive
16. O=C1OC2(c3cc(Br)c(O)c(Br)c3Oc3c2cc(Br)c(O)c3Br)c2c(Cl)c(Cl)c(Cl)c(Cl)c21 ... inactive
17. C[C@H]1C[C@@H]2[C@H]([C@@H](O)C[C@@]3(C)[C@H]2CC[C@]3(O)C(=O)CO)[C@@]2(C)C=CC(=O)C=C12 ... inactive
18. CCC/C=C/C=O ... inactive
19. CC(C)=CCCC(C)CC=O (stereo unspecified) ... inactive
20. COC(=O)OC ... inactive
21. O=C(O)CCCCCCCCCCC(=O)O ... inactive
22. CCCC/C=C\CCCCCCCCCC=O ... inactive
23. Cc1ccc(C=O)s1 ... inactive
24. O=C(O)CCSCCC(=O)O ... inactive
25. O=C(COc1ccc(Cl)cc1)N1CCN(Cc2ccc3c(c2)OCO3)CC1 ... inactive
26. [Ca+2] ... inactive
27. CC1(C)OC[C@@H]2O[C@@]3(C(=O)O)OC(C)(C)O[C@H]3[C@@H]2O1 ... inactive
28. O=C=NC1CCC(CC2CCC(N=C=O)CC2)CC1 (stereo unspecified) ... active
29. CC(c1cc2ccccc2s1)N(O)C(N)=O (stereo unspecified) ... inactive
30. CC(=O)OCC=Cc1ccccc1 ... inactive
31. CN1[C@@H]2CC(OC(=O)[C@H](CO)c3ccccc3)C[C@H]1[C@@H]1O[C@@H]12 (stereo partly specified) ... inactive
